- study-target: T1, human IL-8 (interleukin-8) (human, UniProt P10145 28-99, limits assumed)
- T1 construct: also called recombinant human IL-8
- T1 sequence (looked up): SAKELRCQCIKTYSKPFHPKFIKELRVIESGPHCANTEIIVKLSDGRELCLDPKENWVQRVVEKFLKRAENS
- procedure-summary: SPR (Biacore T100, 25 C), antibody captured on anti-human IgG, IL-8 as analyte, 1:1 model, Run 2
reported-metric: Kd (nM)
Output spec: scalar in nM, unitless text.

# count of solved cases: 3
{"binder": "humanized antibody A0L1 (antibody, human IgG1, kappa, V domains shown, Humanized 1C1.5E5, human IgG1/kappa) VH: QVQLVQSGAEVKKPGASVKVSCKASGYTFTSYWMHWVRQAPGQGLEWMGEIDPSDSNTNYNQKFKGRVTMTRDTSISTAYMELSRLRSDDTAVYYCARELLHAVYWGQGTLVTVSS VL: DIQMTQSPSSLSASVGDRVTITCTASQDIHKYISWYQQKPGKAPKLLIHYTSTLQPGVPSRFSGSGSGTDFTFTISSLQPEDIATYYCLQYDNLWTFGQGTKVEIKR", "unit": "nM", "Kd": 0.0679}
{"binder": "humanized antibody A1L0 (antibody, human IgG1, kappa, V domains shown, Humanized 1C1.5E5, human IgG1/kappa; also called AIL0) VH: QVQLVQSGAEVKKPGASVKVSCKASGYTFTSYWMHWVRQAPGQGLEWMGEIDPSDSNTNYNQKFKGKVTMTRDTSISTAYMELSRLRSDDTAVYYCARELLHAVYWGQGTLVTVSS VL: DIQMTQSPSSLSASVGDRVTITCTASQDIHKYISWYQQKPGKAPKLLIYDTSTLQPGVPSRFSGSGSGTDFTFTISSLQPEDIATYYCLQYDNLWTFGQGTKVEIKR", "unit": "nM", "Kd": 0.0954}
{"binder": "chimeric antibody HcLc made from murine 1C1.5E5 (antibody, human IgG1, kappa, V domains shown, Murine variable regions on human IgG1 and human kappa constant regions; also called chimera) VH: QVQLQQPGVELVMPGASVKLSCKASGYTFTSYWMHWVKQRPGQGLEWIGEIDPSDSNTNYNQKFKGKATLTLDKSSSTAYMQLTSLTSEDSAVYYCARELLHAVYWGQGTLVTVSS VL: DIQMTQSPSSLSASLGGKVTITCTASQDIHKYISWFQHKPGKGPRLLIHYTSTLQPGIPSRFSGSGSGRDYSFSISNLEPEDVATYYCLQYDNLWTFGGGTKLDIKR", "unit": "nM", "Kd": 0.0211}

The binder listed as humanized antibody A0L0 (antibody, human IgG1, kappa, V domains shown, Humanized 1C1.5E5, human IgG1/kappa) VH: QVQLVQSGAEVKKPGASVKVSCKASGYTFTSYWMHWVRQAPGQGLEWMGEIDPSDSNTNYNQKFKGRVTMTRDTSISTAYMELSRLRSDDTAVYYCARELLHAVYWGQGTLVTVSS VL: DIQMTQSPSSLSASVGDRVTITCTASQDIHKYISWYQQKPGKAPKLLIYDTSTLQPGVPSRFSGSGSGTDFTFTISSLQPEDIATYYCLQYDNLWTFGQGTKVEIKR has a reported Kd of 0.0816

// data source = patent US20110105724A1
